Target: BCRP (Homo sapiens (Human))
Sequence (Q9UNQ0 whole entry): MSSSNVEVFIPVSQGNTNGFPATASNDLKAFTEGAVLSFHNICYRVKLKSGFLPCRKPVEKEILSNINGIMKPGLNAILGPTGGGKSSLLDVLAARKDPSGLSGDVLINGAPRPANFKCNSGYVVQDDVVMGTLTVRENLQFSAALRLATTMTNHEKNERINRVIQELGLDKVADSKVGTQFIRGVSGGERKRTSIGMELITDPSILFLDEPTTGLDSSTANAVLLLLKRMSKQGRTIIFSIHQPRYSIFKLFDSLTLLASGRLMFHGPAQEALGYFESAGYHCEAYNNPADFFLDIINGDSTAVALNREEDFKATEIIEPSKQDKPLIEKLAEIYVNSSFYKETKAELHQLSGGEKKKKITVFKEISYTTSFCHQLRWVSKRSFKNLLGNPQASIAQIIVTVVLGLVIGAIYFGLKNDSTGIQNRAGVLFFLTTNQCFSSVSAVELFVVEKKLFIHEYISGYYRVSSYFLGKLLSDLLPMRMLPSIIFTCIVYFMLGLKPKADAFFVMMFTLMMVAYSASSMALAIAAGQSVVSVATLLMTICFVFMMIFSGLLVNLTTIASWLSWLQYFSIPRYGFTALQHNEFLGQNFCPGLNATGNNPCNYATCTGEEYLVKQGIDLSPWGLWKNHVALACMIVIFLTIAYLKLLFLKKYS
Assay: BCRP MDCKII efflux assay (Assay 7)
Type: in vitro ADME
Conditions: dog; efflux ratio Papp(B-A)/Papp(A-B), BCRP MDCKII cells; read-out: Assay 7 Pe Ratio
Method: Assay conditions included with and without the BCRP-specific inhibitor, KO143, at a concentration of 0.3 μM to ascertain the contribution of BCRP to the efflux value of the test compound. Final organic concentration in the assay was 1%.
Some molecules, each annotated with its measured efflux ratio at 2 h, 1 µM.

Compound smiles: C=CC(=O)N1[C@@H]2CC[C@H]1C[C@@H](c1ccc3ncnc(Nc4ccc(Oc5cnc6c(c5)ncn6C)c(C)c4)c3n1)C2
efflux ratio at 2 h, 1 µM: 9.3

Compound smiles: CC#CC(=O)N1CC[C@@H]2C[C@H]1CN2c1ccc2ncnc(Nc3ccc(Oc4ccn5ncnc5c4)c(C)c3F)c2n1
efflux ratio at 2 h, 1 µM: 2.4

Compound smiles: C=CC(=O)N1C[C@H]2C[C@@H]1CN(c1ccc3ncnc(Nc4ccc(Oc5ccn6ncnc6c5)c(Cl)c4F)c3n1)C2
efflux ratio at 2 h, 1 µM: 13.8

Compound smiles: C=CC(=O)N1CCN(c2nc3c(Oc4ccc(Oc5ccc6c(c5)ncn6C)c(C)c4)ncnc3cc2OC)CC1
efflux ratio at 2 h, 1 µM: 16.7

Hey, just so you know, these numbers are from patent US12447153B2.
